Target: M1 (Cortex) (Rattus norvegicus, UniProt P08482)
Sequence (P08482 1-460): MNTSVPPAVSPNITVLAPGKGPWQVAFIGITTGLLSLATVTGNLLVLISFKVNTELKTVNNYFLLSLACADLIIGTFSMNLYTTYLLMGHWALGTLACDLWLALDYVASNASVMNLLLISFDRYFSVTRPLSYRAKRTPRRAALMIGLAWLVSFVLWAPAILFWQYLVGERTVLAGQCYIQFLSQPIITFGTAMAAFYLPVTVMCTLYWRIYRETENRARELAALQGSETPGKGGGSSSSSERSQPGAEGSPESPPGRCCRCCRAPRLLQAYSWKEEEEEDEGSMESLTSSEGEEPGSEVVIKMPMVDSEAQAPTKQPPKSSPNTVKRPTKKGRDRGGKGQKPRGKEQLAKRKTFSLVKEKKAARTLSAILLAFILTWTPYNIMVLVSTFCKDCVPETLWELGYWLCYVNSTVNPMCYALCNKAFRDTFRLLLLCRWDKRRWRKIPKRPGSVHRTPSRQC
pKi: −log10 of the molar value.
observed-property: pKi

smiles	pKi
CCN(CCCC1CCN(CC(=O)N2c3ccc(C)cc3C(=O)Nc3cccnc32)CC1)C(=O)C(C)(C)CC	6.22

1 = CCN(CCCC1CCN(CC(=O)N2c3ccccc3C(=O)Nc3cccnc32)CC1)C(=O)C(C)(C)C
2 = CCN(CCCC1CCN(CC(=O)N2c3ccccc3C(=O)Nc3cccnc32)CC1)C(=O)C(C)(C)CC
3 = Cc1scc2c1N(C(=O)CN1CCC(CCCN3CCCCC3)CC1)c1ccccc1NC2=O
4 = CCCC(C)(C)C(=O)N(CC)CCCC1CCN(CC(=O)N2c3ccccc3C(=O)Nc3cccnc32)CC1
Query string: Please produce an ascending ranking of these molecules based on pKi. Put the labels in the requested order and list them out.
Result string: 1, 2, 4, 3
(1: 6.05, 2: 6.30, 4: 6.82, 3: 8.10)

###

Target: M2 (Heart) (Rattus norvegicus, UniProt P10980)
Sequence (P10980 1-466): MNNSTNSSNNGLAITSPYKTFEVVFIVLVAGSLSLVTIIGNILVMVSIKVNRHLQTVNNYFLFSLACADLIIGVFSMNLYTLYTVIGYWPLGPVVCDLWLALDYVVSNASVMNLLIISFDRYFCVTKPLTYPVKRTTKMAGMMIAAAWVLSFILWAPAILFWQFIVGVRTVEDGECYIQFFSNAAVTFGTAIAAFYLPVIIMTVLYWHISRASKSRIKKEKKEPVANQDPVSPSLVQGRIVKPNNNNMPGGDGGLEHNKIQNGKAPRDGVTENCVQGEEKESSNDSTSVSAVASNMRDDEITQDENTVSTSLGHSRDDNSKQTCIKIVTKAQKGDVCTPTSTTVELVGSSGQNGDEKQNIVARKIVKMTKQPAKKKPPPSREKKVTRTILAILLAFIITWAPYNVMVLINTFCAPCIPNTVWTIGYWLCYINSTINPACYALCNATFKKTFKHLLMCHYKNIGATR
pKi: −log10 of the molar value.
observed-property: pKi

P = Cc1scc2c1N(C(=O)CN1CCC(CCCN3CCCCC3)CC1)c1ccccc1NC2=O [N]
Q = CCCC(C)(C)C(=O)N(CC)CCCC1CCN(CC(=O)N2c3ccccc3C(=O)Nc3cccnc32)CC1 [Substance B]
Query string: Field: lower pKi | Options: P / Q Lab note: record the label of whichever item you select.
Result string: Q
(Q: 7.82, P: 8.70)

I = CCN(CCCC1CCN(CC(=O)N2c3ccc(C)cc3C(=O)Nc3cccnc32)CC1)C(=O)C(C)(C)CC [Substance G]
II = O=C1Nc2cccnc2N(C(=O)CCCCCN2CCCCC2)c2ccccc21 [Substance O, reference compound]
Query string: Lab note: record which item had the higher pKi, I or II . Identify your selection by its label.
Result string: II
